target: MER (Homo sapiens, UniProt Q12866)
Sequence (Q12866 21-999): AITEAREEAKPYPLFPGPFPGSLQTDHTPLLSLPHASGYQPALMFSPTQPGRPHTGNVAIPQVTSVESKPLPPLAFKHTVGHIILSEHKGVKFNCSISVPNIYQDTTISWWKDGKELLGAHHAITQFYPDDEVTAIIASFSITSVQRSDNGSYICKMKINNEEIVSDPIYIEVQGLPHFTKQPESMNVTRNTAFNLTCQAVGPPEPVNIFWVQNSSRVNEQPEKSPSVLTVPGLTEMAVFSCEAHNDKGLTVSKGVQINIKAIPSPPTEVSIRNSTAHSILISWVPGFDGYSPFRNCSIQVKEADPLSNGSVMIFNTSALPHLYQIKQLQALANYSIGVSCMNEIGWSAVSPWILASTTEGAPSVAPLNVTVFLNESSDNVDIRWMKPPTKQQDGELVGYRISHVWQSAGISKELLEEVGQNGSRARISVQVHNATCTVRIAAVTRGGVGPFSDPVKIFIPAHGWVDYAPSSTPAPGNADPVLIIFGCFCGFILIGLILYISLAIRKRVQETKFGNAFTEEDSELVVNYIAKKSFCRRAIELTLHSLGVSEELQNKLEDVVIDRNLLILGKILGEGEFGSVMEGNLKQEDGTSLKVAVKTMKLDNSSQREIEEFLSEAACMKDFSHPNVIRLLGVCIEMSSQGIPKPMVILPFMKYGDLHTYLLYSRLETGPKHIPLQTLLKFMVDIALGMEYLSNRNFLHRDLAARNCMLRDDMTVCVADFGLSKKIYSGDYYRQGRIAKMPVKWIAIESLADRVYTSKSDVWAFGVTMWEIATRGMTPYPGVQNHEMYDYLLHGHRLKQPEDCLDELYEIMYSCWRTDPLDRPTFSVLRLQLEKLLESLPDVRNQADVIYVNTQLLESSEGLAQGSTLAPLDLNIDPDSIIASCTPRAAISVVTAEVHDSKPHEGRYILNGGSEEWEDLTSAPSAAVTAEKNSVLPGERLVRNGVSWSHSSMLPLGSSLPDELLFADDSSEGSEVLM
property name: IC50
The reply should read as a number followed by its unit.

Prompt: Given the entry `Nc1ncc(-c2cnn(C3CCNCC3)c2)cc1-c1nnc(CC2CC2)o1` , report its measured IC50.
Completion: 44 nM
